test: Tmax in CD1 mouse at 5 mg/kg administered as single dose via oral gavage after 24 hrs by LC/MS analysis; assay type: ADME, organism-based; details: in vivo
quantity name: Tmax

Below, each entry is followed by its recorded Tmax result.
[
  {
    "compound string": "CN1C(=O)C2=C(C1=O)N(CC(=O)Nc1ccc(-c3cccnc3)nn1)CCC2",
    "recorded result": "120 min"
  },
  {
    "compound string": "Cc1ccc(-c2ccc(NC(=O)CN3CCCC4=C3C(=O)N(C3CC3)C4=O)nn2)cn1",
    "recorded result": "30 min"
  },
  {
    "compound string": "O=C(CN1CCCC2=C1C(=O)N(C1CC1)C2=O)Nc1ccc(-c2cncc(F)c2)nn1",
    "recorded result": "30 min"
  }
]

Tmax reading for CN1C(=O)C2=C(C1=O)N(CC(=O)Nc1ccc(-c3cncc(F)c3)nn1)CCC2 : 120 min

Reported Tmax ( Cc1ccc(-c2ccc(NC(=O)CN3CCCC4=C3C(=O)N(C)C4=O)nn2)cn1 ) = 10.2 min

Summary for this molecule, O=C(CN1CCCC2=C1C(=O)N(C1CC1)C2=O)Nc1ccc(-c2cccnc2)nn1 : Tmax is 30 min

###

Reported Cmax is given for each of the following molecules.
test: Cmax in CD1 mouse at 5 mg/kg administered as single dose via oral gavage after 24 hrs by LC/MS analysis; assay type: ADME, organism-based; set-up: dose 5 mg/kg, route oral; settings: in vivo

Reference set (5 entries):
[
  {
    "compound string": "Cc1ccc(-c2ccc(NC(=O)CN3CCCC4=C3C(=O)N(C)C4=O)nn2)cn1",
    "Cmax": "1050 ng/mL"
  },
  {
    "compound string": "O=C(CN1CCCC2=C1C(=O)N(C1CC1)C2=O)Nc1ccc(-c2cncc(F)c2)nn1",
    "Cmax": "3290 ng/mL"
  },
  {
    "compound string": "Cc1ccc(-c2ccc(NC(=O)CN3CCCC4=C3C(=O)N(C3CC3)C4=O)nn2)cn1",
    "Cmax": "1190 ng/mL"
  },
  {
    "compound string": "CN1C(=O)C2=C(C1=O)N(CC(=O)Nc1ccc(-c3cccnc3)nn1)CCC2",
    "Cmax": "759 ng/mL"
  },
  {
    "compound string": "O=C(CN1CCCC2=C1C(=O)N(C1CC1)C2=O)Nc1ccc(-c2cccnc2)nn1",
    "Cmax": "4030 ng/mL"
  }
]

Now let's try a different one.
Cmax in this record for CN1C(=O)C2=C(C1=O)N(CC(=O)Nc1ccc(-c3cncc(F)c3)nn1)CCC2 : 845 ng/mL

The reported measurements were obtained from ChEMBL document CHEMBL4038310.
